assay: In vitro skin permeation of 5%w/v MTG in single solvents (Franz diffusion cells), with infinite dose model fitting; format: in vitro ADME, porcine; conditions: pig, 5%w/v MTG in Transcutol; receptor PBS with 0.01%w/v ascorbic acid (Transcutol-AA); 48 h; read-out: Kp (permeability coefficient) (converted)
measurementLabel: Papp at 48 h, 5 %w/v (×10⁻⁶ cm/s)
Response body: numeric value in ×10⁻⁶ cm/s, unit text excluded.

(Q) What measured Papp at 48 h, 5 %w/v goes with CC[C@@H]1CN2CCc3c([nH]c4cccc(OC)c34)[C@@H]2C[C@@H]1/C(=C\OC)C(=O)OC [MTG, mitragynine] ?
(A) 0.00257

---

experiment: Mass balance studies after 48-h skin permeation of MTG in solvents; format: in vitro ADME, porcine; details: pig, 5%w/v MTG in Labrasol; receptor PBS without ascorbic acid; 48 h; read-out: Total percentage (mass balance recovery)
measurementLabel: recovery at 48 h, 5 %w/v (%)
Response body: numeric value in %, unit text excluded.

(Q) What measured recovery at 48 h, 5 %w/v goes with "CC[C@@H]1CN2CCc3c([nH]c4cccc(OC)c34)[C@@H]2C[C@@H]1/C(=C\OC)C(=O)OC" ?
(A) 70.1

---

assay: Mass balance studies after 48-h skin permeation of MTG in solvents; format: in vitro ADME, porcine; details: pig, 5%w/v MTG in Labrasol; receptor PBS with 0.01%w/v ascorbic acid (Labrasol-AA); 48 h; read-out: Total percentage (mass balance recovery)
measurementLabel: recovery at 48 h, 5 %w/v (%)
Response body: numeric value in %, unit text excluded.

(Q) What measured recovery at 48 h, 5 %w/v goes with CC[C@@H]1CN2CCc3c([nH]c4cccc(OC)c34)[C@@H]2C[C@@H]1/C(=C\OC)C(=O)OC [MTG, mitragynine] ?
(A) 75.7

---

experiment: In vitro skin permeation of MTG from gel formulations, with infinite dose model fitting; format: in vitro ADME, porcine; settings: pig, 1% MTG gel with DMSO and BHT; read-out: Kp (permeability coefficient) (converted)
measurementLabel: Papp at 1 % (nm/s)
Response body: numeric value in nm/s, unit text excluded.

(Q) What measured Papp at 1 % goes with "CC[C@@H]1CN2CCc3c([nH]c4cccc(OC)c34)[C@@H]2C[C@@H]1/C(=C\OC)C(=O)OC" ?
(A) 0.0447

---

Assay: Mass balance studies after skin permeation of MTG gels
Type: in vitro ADME, porcine
Details: pig, all gel formulations (DMSO, PG, Transcutol) with BHT; read-out: Total drug recovery (mass balance)
Procedure: The in vitro permeation study was performed in triplicate using Franz diffusion cell apparatus with a diffusion area of ~ 0.8 cm^2 and a receptor volume of ~ 3 mL. The porcine skin was thawed at room temperature and cut into an appropriate size before mounting on the Franz diffusion cells. […] Immediately post-application, any remaining MTG was swabbed from the skin surface with cotton buds and added into an Eppendorf tube. […] All samples were vortexed and analysed using HPLC (Sect. HPLC analysis). […]
measurementLabel: recovery at 48 h, 1 %

(Q) What measured recovery at 48 h, 1 % goes with "CC[C@@H]1CN2CCc3c([nH]c4cccc(OC)c34)[C@@H]2C[C@@H]1/C(=C\OC)C(=O)OC" ?
(A) > 80%

---

test: In vitro skin permeation of 5%w/v MTG in single solvents (Franz diffusion cells), with infinite dose model fitting; format: in vitro ADME, porcine; conditions: pig, 5%w/v MTG in PG; receptor PBS without ascorbic acid; 48 h; read-out: Kp (permeability coefficient) (converted)
measurementLabel: Papp at 48 h, 5 %w/v (×10⁻⁶ cm/s)
Response body: numeric value in ×10⁻⁶ cm/s, unit text excluded.

(Q) What measured Papp at 48 h, 5 %w/v goes with CC[C@@H]1CN2CCc3c([nH]c4cccc(OC)c34)[C@@H]2C[C@@H]1/C(=C\OC)C(=O)OC [MTG, mitragynine] ?
(A) 0.00266
